Test system: T-47D breast
Assay: NCI tumour cell line growth inhibition, 48 h
measurementKind: TGI

# molecule, TGI
rows = [
    ("CCC(=O)C1(N2CCOCC2)CCN(CCCC(=O)c2ccc(F)cc2)CC1", "> 100 µM"),
    ("CCN(CC)CCCC(C)Nc1cc(-c2ccc(C(F)(F)F)cc2)c(C#N)c2nc3ccccc3n12 (stereo unspecified)", "5.45 µM"),
]

Bench note: what TGI did CCOC(=O)/C(C=Nc1c(C)n(C)n(-c2ccccc2)c1=O)=C(/O)c1ccccc1 show? > 100 µM

TGI lookup needed for O=C1c2sc(-c3ccc(F)cc3)cc2-n2cccc21 , thanks. > 100 µM

Given CC1(C)C=Cc2c(cc3oc4ccc5c(c4c(=O)c3c2O)C=CC(C)(C)O5)O1 , state its recorded TGI. > 100 µM

For the molecule shown here, CC1(C)C(C#N)=[N+]([O-])C(C)(C)N1O , give the reported TGI. > 100 µM

Consider the molecule shown here: CC(=O)OCc1ccc2oc(=O)c(C(=O)Oc3cccc(Cl)c3)cc2c1 What is its recorded TGI? 41 µM

Can you share its TGI? I mean this molecule: c1ccc(N=C(N2CCOCC2)N(CCN2CCOCC2)c2ccccc2)cc1 > 100 µM

Could you tell me which TGI is on file for CC1=CC(=O)CC(C)(C)C1(O)/C=C/C(C)=C/C(=O)O (stereo unspecified) ? > 100 µM

Query (molecule): COc1ccccc1/C=C/C(=O)c1c(O)cc2occc2c1OC ; field requested: TGI > 100 µM

Fill in: TGI of CC1=CC=C2c3ccccc3C=CN2C(=O)C1 is ___ > 100 µM

* * *

Entries and their log10 TGI values follow.
Test system: RXF 393 renal
Assay: NCI tumour cell line growth inhibition, 48 h
Note the log scale: values are log10 of TGI expressed in µM.

Solved cases below.
# molecule, log10 TGI
data = [
    ("Cn1cc(-c2csc(-c3cn(C)c4ccc(Br)cc34)n2)c2cnccc21", 0.51),
    ("Cc1ccc2nc(N/N=C/c3ccc(C)s3)cc(C)c2c1", 1.45),
    ("C=CC(=O)N1C/C(=C\\c2ccccc2)C(=O)/C(=C/c2ccccc2)C1", 0.65),
    ("NC(=NCCCC1(c2ccccc2)CCCC1)Nc1ccc(Cl)cc1", 0.46),
    ("CCOC(=O)C1(C#N)C(c2ccccc2)CC(O)(c2ccc([N+](=O)[O-])cc2)C(C(=O)c2ccc([N+](=O)[O-])cc2)C1c1ccccc1 (stereo unspecified)", 1.63),
]

Next:
Please tell me: log10 TGI of C=C(C)[C@@H]1CC[C@]2(C(N)=O)CC[C@]3(C)[C@H](CC[C@@H]4[C@@]5(C)CC[C@H](O)C(C)(C)[C@@H]5CC[C@]43C)[C@@H]12 , system RXF 393 renal? 0.73

* * *

System: COLO 205 colon
Experiment: NCI tumour cell line growth inhibition, 48 h; in the data active = GI50 below about 0.43 µM; inactive = the rest
Parameter call: string, one of active, inactive

Take a look at these entries with their results.
# compoundStructure, classLabel
records = [
    ("COC(=O)[C@H]1[C@@H](O)[C@@]2(O)c3c(OC)cc(O[C@@H]4O[C@@H]([C@H](O)CO)CO[C@H]4OC)cc3O[C@@]2(c2ccc(OC)cc2)[C@@H]1c1ccccc1", "active"),
    ("N.N.N.N.O=NN1CCCCCC1(P(=O)([O-])[O-])P(=O)([O-])[O-].[Pt+4].[Pt+4]", "inactive"),
    ("Cc1cccc(-c2nn3c(c2-c2ccnc4ccc(C(N)=O)cc24)CCC3)n1", "inactive"),
    ("C=C(C)[C@@H]1CC[C@]2(C(N)=O)CC[C@]3(C)[C@H](CC[C@@H]4[C@@]5(C)CC[C@H](O)C(C)(C)[C@@H]5CC[C@]43C)[C@@H]12", "inactive"),
    ("CN[C@@H](C)C(=O)N[C@H]1CN(C(=O)CC(C)C)CC[C@H]2CC[C@@H](C(=O)NC(c3ccccc3)c3ccccc3)N2C1=O", "inactive"),
]

Recorded test call requested for CNC(=O)c1c(NC(=O)c2ccc(C(F)(F)F)cc2)sc2c1CCC(=O)C2 inactive

Per the records of this test, what outcome belongs to Cc1ncc(C(=O)Nc2ccc(CN3CCN(C)CC3)c(C(F)(F)F)c2)cc1C#Cc1cnc(N)c2cnccc12 ? active

# lookup: test call for COC(=O)[C@H]1C(=O)[C@@]2(C)[C@H]([C@H](OC(=O)c3ccccc3)[C@]3(O)C[C@H](OC(=O)[C@H](O)[C@@H](NC(=O)c4ccc(F)cc4)c4ccccc4)C(C)=C1C3(C)C)[C@]1(OC(C)=O)CO[C@@H]1C[C@@H]2O active

Which outcome was entered for the molecule O=C(NCCc1ccccc1)C(c1ccccc1)(c1ccccc1)c1ccccc1 in this test? inactive

Any idea what this test logged for C/C1=C/C(=O)O[C@@H]2C[C@@H](CC[C@H](C)/C=C\C=C\CC1)O[C@@](O)([C@@H]1CSC(=O)N1CO)C2 ? active

What call does the record list for NC(=NCCCC1(c2ccccc2)CCCC1)Nc1ccc(Cl)cc1 ? inactive
